Tested on: P388 leukemia
Assay Name: In vivo antitumor activity against lymphocytic leukemia P388 in mice (Q1Dx3, ip)
Set-up: species or system mouse (female CDF1)
Condition Summary: P388, 10 mg/kg/day, Q1D × 3, ip
In this section, each of the compounds is paired with its reported T/C % of MST.

{"columns": ["Compound", "Unit Spec", "T/C % of MST"],
 "data": [
  ["COC1C(N)C(OC2C(Oc3cccc4c(O)c5c(=O)oc6ccc(C)c7c(=O)oc(c34)c5c67)OC(C)C(O)C2(C)O)OC(C)C1O (centres unmarked) [Compound 1, Elsamicin A]", "%", 190],
  ["COC1C(N)C(OC2C(Oc3cccc4c(O)c5c(=O)oc6ccc(C)c7c(=O)oc(c34)c5c67)OC(C)C3OC4(CCCCC4)OC32C)OC(C)C1O (centres unmarked) [Compound 6b, 3',4'-O-Cyclohexylideneelsamicin A]", "%", 165],
  ["COC1C(N)C(OC2C(Oc3cccc4c(O)c5c(=O)oc6ccc(C)c7c(=O)oc(c34)c5c67)OC(C)C(OC3CCCCO3)C2(C)O)OC(C)C1O (centres unmarked) [Compound 8, 4'-O-Tetrahydropyranylelsamicin A]", "%", 225],
  ["COC1OC2C(C)OC(Oc3cccc4c(O)c5c(=O)oc6ccc(C)c7c(=O)oc(c34)c5c67)C(OC3OC(C)C(O)C(OC)C3N)C2(C)O1 (centres unmarked) [Compound 6d, 3',4'-O-Methoxymethylideneelsamicin A]", "%", 224],
  ["COC1C(N)C(OC2C(Oc3cccc4c(O)c5c(=O)oc6ccc(C)c7c(=O)oc(c34)c5c67)OC(C)C3OC(c4ccccc4)OC32C)OC(C)C1O (centres unmarked) [Compound 6c, 3',4'-O-Benzylideneelsamicin A]", "%", 180]
]}

---

T/C % of MST: recorded values
Test system: B16 melanoma
Assay Name: In vivo antitumor activity against B16 melanoma in mice (Q4Dx3, ip)
Parameters: species or system mouse (male BDF1)
Condition Summary: B16, 3 mg/kg/day, Q4D × 3, ip
Assay Readout: T/C % of MST (%)

{"columns": ["Compound", "Inequality Sign", "Observed Result"],
 "data": [
  ["COC1C(N)C(OC2C(Oc3cccc4c(O)c5c(=O)oc6ccc(C)c7c(=O)oc(c34)c5c67)OC(C)C3OC4(CCCCC4)OC32C)OC(C)C1O (stereo not drawn)", "=", 175],
  ["COC1OC2C(C)OC(Oc3cccc4c(O)c5c(=O)oc6ccc(C)c7c(=O)oc(c34)c5c67)C(OC3OC(C)C(O)C(OC)C3N)C2(C)O1 (stereo not drawn)", "=", 283],
  ["COC1C(N)C(OC2C(Oc3cccc4c(O)c5c(=O)oc6ccc(C)c7c(=O)oc(c34)c5c67)OC(C)C3OC(c4ccccc4)OC32C)OC(C)C1O (stereo not drawn)", "=", 179],
  ["COC1C(N)C(OC2C(Oc3cccc4c(O)c5c(=O)oc6ccc(C)c7c(=O)oc(c34)c5c67)OC(C)C(OC3CCCCO3)C2(C)O)OC(C)C1O (stereo not drawn) [Compound 8, 4'-O-Tetrahydropyranylelsamicin A]", "≥", 281],
  ["COC1C(N)C(OC2C(Oc3cccc4c(O)c5c(=O)oc6ccc(C)c7c(=O)oc(c34)c5c67)OC(C)C(O)C2(C)O)OC(C)C1O (stereo not drawn)", "≥", 216],
  ["COC1C(N)C(OC2C(Oc3cccc4c(O)c5c(=O)oc6ccc(C)c7c(=O)oc(c34)c5c67)OC(C)C3OC(C)(C)OC32C)OC(C)C1O (stereo not drawn)", "=", 192]
]}

Provenance of the data: patent US5229371A
